assay: photoluminescence quantum yield (fraction); solvent given as SMILES; conditions: in CO
Reported photoluminescence quantum yield values are given for each entry in this list.
Answer with a number only.

These recorded examples may help you get a feel for the data.
# Molecule, photoluminescence quantum yield
data = [
    ("O=C1/C(=C2\\Sc3ccc(S(=O)(=O)Nc4ccccc4)cc3C2=O)Sc2ccc(S(=O)(=O)Nc3ccccc3)cc21", 0.006),
    ("CC1(C)C(/C=C/C2=C(Oc3ccc(CCN=C=S)cc3I)C(=C/C=C3/N(CCCS(=O)(=O)[O-])c4ccccc4C3(C)C)/CCC2)=[N+](CCCS(=O)(=O)[O-])c2ccccc21", 0.15),
    ("CC(C)c1ccc2ccc3cccc4ccc1c2c34", 0.24),
    ("CN(C)c1ccc(-c2nc3c(c4c2-c2ccccc2CC4)-c2ccccc2CC3)cc1", 0.08),
    ("O=[N+]([O-])c1ccc(/C=C/c2cn(S(=O)(=O)c3ccccc3)c3ccccc23)cc1", 0.002),
    ("O=Cc1cc(C=O)c2ccc3c(N4CCCCC4)cc(N4CCCCC4)c4ccc1c2c43", 0.83),
]

Form field photoluminescence quantum yield, entry CCN(CC)c1ccc(C2=C3C(C)=CC(/C=C/c4ccc(OCC(=O)OC)cc4)=[N+]3[B-](F)(F)n3c(C)cc(C)c32)cc1 : 0.87

Form field photoluminescence quantum yield, entry COC1=[N+]2C(=C(c3ccccc3)c3cc(SC#N)c(OC)n3[B-]2(F)F)C=C1SC#N : 0.15

Form field photoluminescence quantum yield, entry COc1ccc(O)c(C=O)c1 : 0.03

###

test: photoluminescence quantum yield (fraction); solvent given as SMILES; settings: in ClCCl
Reported photoluminescence quantum yield values are given for each entry in this list.

These recorded examples may help you get a feel for the data.
# Compound, Result
records = [
    ("CC(C)(C)C1CCC(=CS/C=C/c2ccc(/C=C/SC=C3CCC(C(C)(C)C)CC3)cc2)CC1 (stereo unspecified)", 0.031),
    ("CCOC(=O)COc1ccc(/C=C/C2=C3c4ccccc4C(c4ccc[nH]4)=[N+]3[B-](F)(F)n3ccc(C)c32)cc1", 0.003),
    ("CCn1c2ccccc2c2cc(-c3cc(-c4ccc5c(c4)c4ccccc4n5CC)nc(-c4ccc(OC)cc4)n3)ccc21", 0.42),
    ("COC(=O)c1[nH]c(-c2ccccc2)c2nnc3ccsc3c12", 0.111),
]

Form field photoluminescence quantum yield, entry FC(F)(F)c1ccc(B2c3ccccc3Nc3ccccc32)c(C(F)(F)F)c1 : 0.9

Form field photoluminescence quantum yield, entry CCCCCCCCOc1ccc(C#Cc2c3cc4ccccc4cc3c(C#Cc3ccc(F)cc3)c3cc4ccccc4cc23)cc1 : 0.03

Form field photoluminescence quantum yield, entry COC(=O)c1ccc(C2=C(/C=C/c3ccc(OC)cc3)O[B-](F)(F)[O+]=C2/C=C/c2ccc(OC)cc2)cc1 : 0.43

Form field photoluminescence quantum yield, entry Cc1ccc(N(c2ccc(C)cc2)c2cc(N(c3ccc(C)cc3)c3ccc(C)cc3)c3ccc4cc(C(C)(C)C)cc5ccc2c3c54)cc1 : 0.78

Form field photoluminescence quantum yield, entry Cc1cc(-c2ccc3ccccc3c2)cc(C)[o+]1 : 0.64

###

assay: photoluminescence quantum yield (fraction); solvent given as SMILES; conditions: in C1CCCCC1
// classify: if (photoluminescence quantum yield < 0.6) criterion met else criterion not met

# Compound, Group
rows = [
    ("CCN(CC)c1ccc2c(c1)oc(=O)c1cc3c(-c4ccccc4)nn(-c4ccccc4)c3nc12", "criterion met"),
    ("C[Si](C)(C)C#Cc1ccc(C#Cc2cnc(C#Cc3ccccc3)nc2)cc1", "criterion met"),
    ("[C-]#[N+]c1ccc(-c2ccc(N)cc2)cc1", "criterion not met"),
    ("CCCCCCCCOc1ccc(C2=C(c3ccc(OCCCCCCCC)cc3)C(C)(C)c3ccccc32)cc1", "criterion met"),
]

Query compound follows.
Exercise: Given COC(=O)c1nc(-c2cccc3ccccc23)oc1C , is recorded photoluminescence quantum yield strictly lower than 0.6?
Key: criterion met

Source: the Deep4Chem optical property database
